Would you mind telling me the reported pKi of each entry?
# targetOfAssay: human D2 receptor (Homo sapiens (Human))
# Sequence (P14416 whole entry): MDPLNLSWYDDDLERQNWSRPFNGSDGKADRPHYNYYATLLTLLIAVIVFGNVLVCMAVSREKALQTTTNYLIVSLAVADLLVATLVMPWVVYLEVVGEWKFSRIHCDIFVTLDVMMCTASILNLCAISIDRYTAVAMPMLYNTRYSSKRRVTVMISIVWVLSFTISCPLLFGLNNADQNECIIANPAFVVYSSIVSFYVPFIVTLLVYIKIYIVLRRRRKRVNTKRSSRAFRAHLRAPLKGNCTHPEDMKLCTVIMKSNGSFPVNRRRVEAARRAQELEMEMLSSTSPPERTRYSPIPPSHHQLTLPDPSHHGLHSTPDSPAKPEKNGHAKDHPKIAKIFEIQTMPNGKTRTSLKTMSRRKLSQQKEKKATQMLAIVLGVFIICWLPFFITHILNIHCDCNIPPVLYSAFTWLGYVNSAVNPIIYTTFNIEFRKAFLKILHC
# experimentSummary: Radioligand binding ([3H]-spiperone) to cloned receptors expressed in HEK-293 EBNA cells
# conditionDetails: HEK293 EBNA cell membranes expressing human D2
Quick note: pKi means taking -log10 of the concentration in moles per liter.

pKi lookup needed for CC(C)C(=O)N[C@H]1CC[C@H](CCN2CCC(c3cccc4c3CCO4)CC2)CC1 , thanks.
6.55

Quick one: O=C(N[C@H]1CC[C@H](CCN2CCC(c3cccc4c3CCO4)CC2)CC1)C1CCCOC1 (mixture of isomers)
6.20

Ok, now CN1CCN(c2ccc(C(=O)N[C@H]3CC[C@H](CCN4CCC(c5cccc6c5CCO6)CC4)CC3)cc2)CC1
6.83

Input COCC(=O)N[C@H]1CC[C@H](CCN2CCC(c3cccc4c3CCO4)CC2)CC1
6.17

How about CC(=O)N[C@H]1CC[C@H](CCN2CCC(c3cccc4occc34)CC2)CC1 ?
6.73

Entry to check: CCCC(=O)N[C@H]1CC[C@H](CCN2CCC(c3cccc4c3CCO4)CC2)CC1
6.71

Another compound to look at: O=C(N[C@H]1CC[C@H](CCN2CCC(c3cccc4c3CCO4)CC2)CC1)c1ccc(N2CCCCC2)cc1
5.64

Would you mind doing CCC(C)C(=O)N[C@H]1CC[C@H](CCN2CCC(c3cccc4c3CCO4)CC2)CC1 (mixture of isomers) as well?
5.92

Would you mind doing Cc1cc(CC(=O)N[C@H]2CC[C@H](CCN3CCC(c4cccc5c4CCO5)CC3)CC2)on1 as well?
6.27

Lookup O=C(CC1CCC1)N[C@H]1CC[C@H](CCN2CCC(c3cccc4c3CCO4)CC2)CC1
6.52

Next entry: O=C(C[C@@H](O)C(F)(F)F)N[C@H]1CC[C@H](CCN2CCC(c3cccc4c3CCO4)CC2)CC1
6.62

Queued: O=CN[C@H]1CC[C@H](CCN2CCC(c3cccc4c3CCO4)CC2)CC1
6.78

How about CS(=O)(=O)CC(=O)N[C@H]1CC[C@H](CCN2CCC(c3cccc4occc34)CC2)CC1 ?
6.81

Then this compound: O=C(N[C@H]1CC[C@H](CCN2CCC(c3cccc4c3CCO4)CC2)CC1)C1CC1(F)F (stereo partly shown)
6.63

Please do the same for O=C(N[C@H]1CC[C@H](CCN2CCC(c3cccc4c3CCO4)CC2)CC1)c1ccc(Cl)cc1 as well.
7.14

What about CC(=O)N[C@H]1CC[C@H](CCN2CCC(c3ccc(F)c4occc34)CC2)CC1 ?
6.39

Param item: O=C(N[C@H]1CC[C@H](CCN2CCC(c3cccc4c3CCO4)CC2)CC1)c1ccc(-n2cccc2)cc1
7.07

Next compound up: O=C(N[C@H]1CC[C@H](CCN2CCC(c3cccc4c3CCO4)CC2)CC1)C1CCC1
6.84

Try this compound next: O=C(N[C@H]1CC[C@H](CCN2CCC(c3cccc4c3CCO4)CC2)CC1)c1ccnc2ccccc12
6.25
